Target: MetQ (methionine-binding protein) (Neisseria meningitidis)
Construct: gene gna1946
Sequence (Q9JPG4 entry or part of it): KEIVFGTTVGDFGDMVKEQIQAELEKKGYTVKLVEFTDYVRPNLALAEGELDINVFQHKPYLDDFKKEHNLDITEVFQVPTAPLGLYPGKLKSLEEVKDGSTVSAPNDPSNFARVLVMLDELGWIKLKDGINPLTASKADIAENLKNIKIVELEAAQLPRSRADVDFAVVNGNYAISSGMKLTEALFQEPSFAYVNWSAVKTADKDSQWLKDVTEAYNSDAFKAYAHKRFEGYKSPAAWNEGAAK
Assay: ITC (displacement titration with D-methionine); crystal structure at […] Å
pKd: −log10 of the molar value.

# Record Smiles, pKd
data = [
    ("CSCC[C@H](N)C(=O)O", 9.70),
]
